tgt: SETD7 (Homo sapiens)
Sequence (Q8WTS6 1-366): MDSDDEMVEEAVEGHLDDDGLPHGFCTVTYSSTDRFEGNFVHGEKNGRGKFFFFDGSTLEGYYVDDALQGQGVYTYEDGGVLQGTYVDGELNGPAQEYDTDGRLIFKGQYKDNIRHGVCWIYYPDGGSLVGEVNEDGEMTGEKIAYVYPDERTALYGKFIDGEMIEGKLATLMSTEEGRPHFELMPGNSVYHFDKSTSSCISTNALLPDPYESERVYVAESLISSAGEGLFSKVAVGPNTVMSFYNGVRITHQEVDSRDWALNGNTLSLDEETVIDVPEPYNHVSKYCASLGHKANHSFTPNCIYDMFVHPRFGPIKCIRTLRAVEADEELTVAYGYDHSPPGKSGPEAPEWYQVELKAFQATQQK
experiment.notes: HMT profiling, SETD7
Format: biochemical
setup.conditions: positive control; read-out: Positive control IC50, SETD7
quantity.kind: pIC50
The scale used: pIC50 is minus the common logarithm of the concentration in molar units.

Record summary for Nc1ncnc2c1ncn2[C@@H]1O[C@H](CSCC[C@H](N)C(=O)O)[C@@H](O)[C@H]1O [SAH, S-adenosylhomocysteine, reference compound] : reported pIC50 = 5.71

---

tgt: SETD7 (Homo sapiens)
Sequence (Q8WTS6 1-366): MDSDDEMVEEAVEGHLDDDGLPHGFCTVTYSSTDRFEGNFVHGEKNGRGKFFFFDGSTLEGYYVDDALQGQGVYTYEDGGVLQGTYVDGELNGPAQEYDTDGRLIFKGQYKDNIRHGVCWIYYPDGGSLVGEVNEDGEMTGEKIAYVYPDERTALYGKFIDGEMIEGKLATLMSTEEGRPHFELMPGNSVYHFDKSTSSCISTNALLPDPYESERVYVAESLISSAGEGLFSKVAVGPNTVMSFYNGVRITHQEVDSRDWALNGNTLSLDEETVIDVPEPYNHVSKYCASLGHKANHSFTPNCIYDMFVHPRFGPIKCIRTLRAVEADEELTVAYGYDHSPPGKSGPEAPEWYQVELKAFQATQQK
experiment.notes: HMT profiling, SETD7
Type: biochemical
setup.conditions: substrate H3[1-21]; read-out: IC50 SETD7
quantity.kind: IC50

For this compound ( CCN(c1cc(-c2ccc(N3CCN(C)CC3)nc2)cc(C(=O)NCc2c3c(c(C)[nH]c2=O)CCCC3)c1C)C1CCOCC1 [ZLD1039] ), measured IC50 is > 100 µM

---

experiment.notes: Pharmacokinetic analysis in rats
Type: in vivo, Sprague-Dawley rats
setup.conditions: Sprague-Dawley, plasma; rat, PO 100mg/kg
quantity.kind: Cmax

Record `CCN(c1cc(-c2ccc(N3CCN(C)CC3)nc2)cc(C(=O)NCc2c3c(c(C)[nH]c2=O)CCCC3)c1C)C1CCOCC1` . Reported Cmax: 482 ng/mL
